src = PubChem BioAssay (EPA / NIEHS)

Read-out: Pselectin, SELP (gene 6403)
Assay: BSK_4H_Pselectin: BioMAP Diversity Plus: 4H Assay for Pselectin Biomarker Activity (AID 2283026)
Conditions: primary human endothelial cells (HUVEC); actives raise or lower the signal
Activity calls are given as the source filed them. Rule for the calls: active = hit-call score of the fitted dose curve at least 0.9, where 1 is the maximum; inactive = score below 0.9.
The reply should be one of these categories: active, inactive

What did this assay record as the result for CC(=O)CC(c1ccccc1)c1c(O)c2ccccc2oc1=O (centres undefined) ? inactive

Now try Cc1cn([C@H]2C=C[C@@H](CO)O2)c(=O)[nH]c1=O . inactive

Now try CC(C)(O)c1ccc(CNC(=O)c2cccnc2Oc2ccc(F)cc2)cc1 . inactive

Now try CCCCC(CC)CO (centres undefined) . inactive

Now try COC(=O)[C@H]1[C@H]2C[C@@H]3c4[nH]c5cc(OC)ccc5c4CCN3C[C@H]2C[C@@H](OC(=O)c2cc(OC)c(OC)c(OC)c2)[C@@H]1OC . active

Now try NC=O . inactive

Now try O=C(NS(=O)(=O)/C=C/c1cccs1)c1ccc(F)cc1Br . inactive

Now try CN(C)C(=O)NC1(c2ccccc2)CCN(CC[C@@]2(c3ccc(F)c(F)c3)CN(C(=O)c3ccccc3)CCO2)CC1 . inactive

Now try C/C=C/c1ccc(OC)cc1 . inactive

Now try O=[Si]=O . inactive

Now try C/C=C/C=C/C(=O)O . inactive

Now try CN(C)C(=O)NC1(c2ccccc2)CCN(CCC[C@]2(c3ccc(Cl)c(Cl)c3)CCCN(C(=O)c3ccccc3)C2)CC1 . inactive

Now try O=C1OC(c2ccc(O)cc2)(c2ccc(O)cc2)c2ccccc21 . active

Now try Cc1cc(Cc2ccc(N)c(C)c2)ccc1N . inactive

Now try COc1ccc(C(=O)Nc2nc3ccccc3c(NCc3ccccc3)c2C#N)cc1 . inactive

Now try O=C(O)c1cccnc1 . inactive

Now try CCCCC(CC)COC(=O)CCCCCCCC(=O)OCC(CC)CCCC (centres undefined) . inactive

Now try O=C(O)c1[nH]n(-c2ccc(S(=O)(=O)O)cc2)c(=O)c1N=Nc1ccc(S(=O)(=O)O)cc1 . inactive

Now try O=C(O)CN(CC(=O)O)CC(=O)O . inactive

Now try CN(C)CCCN(C)CCCN(C)C . inactive

Now try CC(COCC(C)OC(=O)c1ccccc1)OC(=O)c1ccccc1 (centres undefined) . inactive

Now try CC(C)COC(=O)CCCCC(=O)OCC(C)C . inactive

Now try COC(=O)CCC(=O)OC . inactive

Now try CC(C)c1cccc(C(C)C)c1 . inactive

Now try CC(=O)[C@@]1(O)CC[C@H]2[C@@H]3CCC4=CC(=O)CC[C@]4(C)[C@H]3CC[C@@]21C . inactive

Now try Cn1cnc2c1c(=O)[nH]c(=O)n2C . inactive

Now try CC(=O)S[C@H](C(=O)N[C@H]1Cc2ccccc2[C@H]2CCC[C@@H](C(=O)O)N2C1=O)C(C)C . inactive

Now try CC1=C(C)S(=O)(=O)CCS1(=O)=O . inactive

Now try N[C@@H](Cc1c[nH]c2ccccc12)C(=O)O . inactive

Now try OCC(O)CO . inactive

Now try O=NO . inactive

Now try Oc1ccccc1O . active

Now try Oc1ccc(O)cc1 . active

Now try O=C1O[C@H]([C@H](O)CO)C(O)=C1O . inactive

Now try CC(=O)OC1CC(C)OC(C)O1 (centres undefined) . inactive

Now try CCN(CC)CCOc1ccc(C(=C(Cl)c2ccccc2)c2ccccc2)cc1 . active

Now try O=C(Oc1ccccc1)c1cccc(C(=O)Oc2ccccc2)c1 . inactive

Now try O=C1c2c(O)cccc2Cc2cccc(O)c21 . inactive

Now try CC(C)c1cccc(C(C)C)c1NC(=O)NS(=O)(=O)c1cc(C(C)(C)O)co1 . inactive

Now try NCCOCCOCCN . inactive

Now try CS(=O)(=O)c1ccc([C@@H](C[C@H]2CCC(=O)C2)C(=O)Nc2cnccn2)cc1Cl . inactive

Now try c1ccc2occc2c1 . inactive

Now try CCC(C)N(C)C(=O)c1cc2ccccc2c(-c2ccccc2Cl)n1 (centres undefined) . inactive

Now try CC(=O)OCC(COC(C)=O)OC(C)=O . inactive

====

Experiment: APR_HepG2_NuclearSize_72hr: Apredica 72-hour HepG2 Assay for Nuclear Size (AID 2282925)
Settings: high-content imaging, actives raise or lower the signal
Active and inactive are the calls of the source. The calls were made as follows: active = hit-call score of the fitted dose curve at least 0.9, where 1 is the maximum; inactive = score below 0.9.
The reply should be one of these categories: yes (1) = active, no (0) = inactive

What did this assay record as the result for CCOCCOCCO ? no (0)

Now try NC=O . no (0)

Now try O=NO . no (0)

Now try Cc1occc(=O)c1O . no (0)

Now try CC(N)=O . no (0)

Now try Oc1ccccc1O . no (0)

Now try NCCOCCOCCN . yes (1)

Now try O=C(O)CN(CC(=O)O)CC(=O)O . no (0)

Now try CCC(C)N(C)C(=O)c1cc2ccccc2c(-c2ccccc2Cl)n1 (centres undefined) . no (0)

Now try CSc1ccc(Oc2ccc(S(N)(=O)=O)cc2CN(C)C)cc1C . no (0)

Now try CC(=O)OC1CC(C)OC(C)O1 (centres undefined) . no (0)

Now try O=C1OC(c2ccc(O)cc2)(c2ccc(O)cc2)c2ccccc21 . no (0)

Now try NC(=Nc1ccccc1)Nc1ccccc1 . no (0)

Now try O=C1O[C@H]([C@H](O)CO)C(O)=C1O . no (0)

Now try CCCCCCCCCC[N+](C)(C)[O-] . no (0)

Now try C#CC(O)C(CC)CCCC (centres undefined) . no (0)

Now try CCCCC(CC)CO (centres undefined) . no (0)

Now try Nc1nc(Cl)nc2c1ncn2[C@H]1C[C@H](O)[C@@H](CO)O1 . no (0)

Now try CC(C)c1cccc(C(C)C)c1 . no (0)

====

Read-out: Monocyte Chemoattractant Protein-1 (MCP1), CCL2 (gene 6347)
Assay: BSK_4H_MCP1: BioMAP Diversity Plus: 4H Assay for Monocyte Chemoattractant Protein-1 (MCP1) Biomarker Activity (AID 2283018)
Settings: primary human endothelial cells (HUVEC); actives raise or lower the signal
Calls of active or inactive are those of the source. Rule for the calls: active = hit-call score of the fitted dose curve at least 0.9, where 1 is the maximum; inactive = score below 0.9.
The reply should be one of these categories: YES = active, NO = inactive

What did this assay record as the result for COC(=O)[C@H]1[C@H]2C[C@@H]3c4[nH]c5cc(OC)ccc5c4CCN3C[C@H]2C[C@@H](OC(=O)c2cc(OC)c(OC)c(OC)c2)[C@@H]1OC ? YES

Now try CC(C)c1cccc(C(C)C)c1NC(=O)NS(=O)(=O)c1cc(C(C)(C)O)co1 . NO

Now try C=CCc1ccc(OC)c(OC)c1 . NO

Now try c1ccc2occc2c1 . NO

Now try Cc1cc(SC2=C(O)C[C@@](CCc3ccc(N)cc3)(C(C)C)OC2=O)c(C(C)(C)C)cc1CO . NO

Now try CO[C@@H]1COCC[C@@H]1N[C@@H]1CC[C@@](C(=O)N2CCc3ncc(C(F)(F)F)cc3C2)(C(C)C)C1 . NO

Now try NC1CCCCC1 . NO

Now try CCCCCCCCCC[N+](C)(C)[O-] . NO

Now try Cc1cc(Cc2ccc(N)c(C)c2)ccc1N . NO

Now try CCc1nc(N)nc(N)c1-c1ccc(Cl)cc1 . NO

Now try CCCCc1nc2cccnc2n1Cc1ccc(-c2ccccc2-c2nnn[nH]2)cc1 . NO

====

Read-out: Glutamate-cysteine ligase regulatory (GCLM), GCLM (gene 2730)
Assay: LTEA_HepaRG_GCLM: Life Technologies and Expression Analysis (LTEA) Assay for Glutamate-cysteine ligase regulatory (GCLM) using HepaRG (AID 2283500)
Conditions: mRNA level, 48 h; actives raise or lower the signal
Activity calls are given as the source filed them. The calls were made as follows: active = hit-call score of the fitted dose curve at least 0.9, where 1 is the maximum; inactive = score below 0.9.
The reply should be one of these categories: active, inactive

What did this assay record as the result for CC(=O)OC1CC(C)OC(C)O1 (configuration not stated) ? inactive

Now try O=C1c2c(O)cccc2Cc2cccc(O)c21 . inactive

Now try CC(=O)S[C@H](C(=O)N[C@H]1Cc2ccccc2[C@H]2CCC[C@@H](C(=O)O)N2C1=O)C(C)C . inactive

Now try Cc1ccc(C(C)(C)C)c(O)c1 . inactive

Now try CCc1cc(C2=C(C(=O)O)N(c3ccccc3C(F)(F)F)S(=O)(=O)c3ccccc32)cc2c1OCO2 . active

Now try CC1=C(C)S(=O)(=O)CCS1(=O)=O . active

Now try OCC(O)CO . inactive

====

Read-out: Urokinase-type plasminogen activator receptor (uPAR), PLAUR (gene 5329)
Experiment: BSK_BE3C_uPAR: BioMAP Diversity Plus: BE3C Assay for Urokinase-type plasminogen activator receptor (uPAR) Biomarker Activity (AID 2283039)
Conditions: primary human bronchial epithelial cells; actives raise or lower the signal
Active and inactive are the calls of the source. Rule for the calls: active = hit-call score of the fitted dose curve at least 0.9, where 1 is the maximum; inactive = score below 0.9.
The reply should be one of these categories: active, inactive

What did this assay record as the result for CC1=C(C)S(=O)(=O)CCS1(=O)=O ? inactive

Now try O=C1O[C@H]([C@H](O)CO)C(O)=C1O . inactive

Now try CCN(CC)CCOc1ccc(C(=C(Cl)c2ccccc2)c2ccccc2)cc1 . active

Now try CC(=O)OC1CC(C)OC(C)O1 (centres undefined) . inactive
